test system: TNFα release in d-U937 cells; assay: LPS-induced TNFα release in d-U937 cells; format: cell-based, human; conditions: dU937 cells; relative to 10 μg/mL BIRB796; read-out: LPS Induced Release TNFα REC50 (dU937)

smilesText	unitOfMeasurement	EC50
Cc1ccc(-n2nc(C(C)(C)C)cc2NC(=O)Nc2ccc(Oc3ccnc(Nc4ccccc4Cl)n3)c3ccccc23)cc1	nM	13

----------
molecular target: GSK 3α enzyme isoform (Homo sapiens (Human), UniProt P49840); assay: GSK 3α enzyme inhibition (FRET, Z-LYTE); conditions: read-out: IC50 Values for Enzyme Inhibition GSK3α
Sequence (P49840 whole entry, canonical isoform): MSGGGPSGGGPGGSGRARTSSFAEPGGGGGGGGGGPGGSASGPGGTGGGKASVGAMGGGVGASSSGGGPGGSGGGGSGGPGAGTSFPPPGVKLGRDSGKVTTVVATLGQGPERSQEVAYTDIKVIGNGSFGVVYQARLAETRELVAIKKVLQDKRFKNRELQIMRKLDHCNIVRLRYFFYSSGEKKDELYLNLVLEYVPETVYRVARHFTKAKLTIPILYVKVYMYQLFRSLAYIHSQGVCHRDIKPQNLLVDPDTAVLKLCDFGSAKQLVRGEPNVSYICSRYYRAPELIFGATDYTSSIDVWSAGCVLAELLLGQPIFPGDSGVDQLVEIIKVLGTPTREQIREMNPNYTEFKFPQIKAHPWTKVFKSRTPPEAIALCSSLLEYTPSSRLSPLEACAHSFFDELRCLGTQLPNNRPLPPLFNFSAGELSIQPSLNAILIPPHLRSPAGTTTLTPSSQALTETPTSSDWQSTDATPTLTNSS
Recorded IC50 for the following molecules

smilesText	IC50
Cc1ccc(-n2nc(C(C)(C)C)cc2NC(=O)Nc2ccc(Oc3ccnc(Nc4cccc(C)c4)n3)c3ccccc23)cc1	> 16.7 µM
COc1cccc(Nc2nccc(Oc3ccc(NC(=O)Nc4cc(C(C)(C)C)nn4-c4ccc(C)cc4)c4ccccc34)n2)c1	> 16.3 µM
Cc1ccc(-n2nc(C(C)(C)C)cc2NC(=O)Nc2ccc(Oc3ccnc(Nc4cccc(Cl)c4)n3)c3ccccc23)cc1	> 16.2 µM
Cc1ccc(-n2nc(C(C)(C)C)cc2NC(=O)Nc2ccc(Oc3ccnc(Nc4ccc(C)c(O)c4)n3)c3ccccc23)cc1	> 1.63 µM
Cc1ccc(-n2nc(C(C)(C)C)cc2NC(=O)Nc2ccc(Oc3ccnc(Nc4ccccc4Cl)n3)c3ccccc23)cc1	> 16.2 µM
Cc1ccc(-n2nc(C(C)(C)C)cc2NC(=O)Nc2ccc(Oc3ccnc(Nc4ccc(O)cc4F)n3)c3ccccc23)cc1	> 1.62 µM
COc1cc(Nc2nccc(Oc3ccc(NC(=O)Nc4cc(C(C)(C)C)nn4-c4ccc(C)cc4)c4ccccc34)n2)ccc1O	> 1.59 µM

----------
Entries and their pIC50 values follow.
target: p38 MAPKα isoform (MAPK14) (Homo sapiens (Human)); assay: p38 MAPKα enzyme inhibition (FRET, Z-LYTE)
Sequence (Q16539 whole entry, canonical isoform): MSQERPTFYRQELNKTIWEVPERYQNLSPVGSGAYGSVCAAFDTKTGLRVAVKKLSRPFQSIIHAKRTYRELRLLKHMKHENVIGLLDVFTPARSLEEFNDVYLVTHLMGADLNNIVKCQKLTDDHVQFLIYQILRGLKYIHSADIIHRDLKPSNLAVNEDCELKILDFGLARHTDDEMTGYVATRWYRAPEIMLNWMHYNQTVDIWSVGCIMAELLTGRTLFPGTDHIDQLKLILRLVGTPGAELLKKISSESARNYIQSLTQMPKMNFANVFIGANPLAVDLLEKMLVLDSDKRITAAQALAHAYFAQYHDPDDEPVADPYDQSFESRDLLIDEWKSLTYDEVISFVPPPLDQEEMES
pIC50: −log10 of the molar value.
measuredProperty: pIC50

molecule	measuredProperty	numericValue
Cc1ccc(-n2nc(C(C)(C)C)cc2NC(=O)Nc2ccc(Oc3ccnc(Nc4cccc(C)c4)n3)c3ccccc23)cc1 [Example 12]	pIC50	6.77
Cc1ccc(Nc2nccc(Oc3ccc(NC(=O)Nc4cc(C(C)(C)C)nn4-c4ccc(C)cc4)c4ccccc34)n2)cc1 [Example 11]	pIC50	6.45
COc1ccc(Nc2nccc(Oc3ccc(NC(=O)Nc4cc(C(C)(C)C)nn4-c4ccc(C)cc4)c4ccccc34)n2)c(OC)c1 [Example 8]	pIC50	6.82
Cc1ccc(-n2nc(C(C)(C)C)cc2NC(=O)Nc2ccc(Oc3ccnc(Nc4ccc(O)cc4O)n3)c3ccccc23)cc1 [Example 32]	pIC50	6.72
Cc1ccc(-n2nc(C(C)(C)C)cc2NC(=O)Nc2ccc(Oc3ccnc(Nc4cccc(F)c4)n3)c3ccccc23)cc1 [Example 15]	pIC50	6.81
CC(C)(C)c1cc(NC(=O)Nc2ccc(Oc3ccnc(Nc4ccccc4)n3)c3ccccc23)n(-c2ccc(O)cc2)n1 [Example 3]	pIC50	6.76
COc1ccc(Nc2nccc(Oc3ccc(NC(=O)Nc4cc(C(C)(C)C)nn4-c4ccc(C)cc4)c4ccccc34)n2)cc1OC [Example 27]	pIC50	6.98

----------
biological target: p38MAPKγ (MAPK12) (Homo sapiens (Human)); experiment: p38 MAPKγ enzyme inhibition (FRET, Z-LYTE); format: biochemical
Sequence (P53778 whole entry): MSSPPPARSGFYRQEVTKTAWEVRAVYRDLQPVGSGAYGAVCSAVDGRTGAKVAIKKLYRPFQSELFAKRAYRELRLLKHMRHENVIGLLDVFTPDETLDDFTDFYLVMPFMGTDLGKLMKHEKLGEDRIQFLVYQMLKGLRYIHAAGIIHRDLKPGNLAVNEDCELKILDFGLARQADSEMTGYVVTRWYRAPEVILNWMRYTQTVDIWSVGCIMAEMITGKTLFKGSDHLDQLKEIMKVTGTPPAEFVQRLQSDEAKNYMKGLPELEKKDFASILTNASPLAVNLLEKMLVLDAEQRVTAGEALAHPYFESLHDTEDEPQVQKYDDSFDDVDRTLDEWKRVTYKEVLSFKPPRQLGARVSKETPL
pIC50: −log10 of the molar value.

smilesText	pIC50
Cc1ccc(-n2nc(C(C)(C)C)cc2NC(=O)Nc2ccc(Oc3ccnc(Nc4cccc(C)c4)n3)c3ccccc23)cc1	< 4.78
CCOc1ccc(Nc2nccc(Oc3ccc(NC(=O)Nc4cc(C(C)(C)C)nn4-c4ccc(C)cc4)c4ccccc34)n2)cc1	< 5.80
Cc1ccc(-n2nc(C(C)(C)C)cc2NC(=O)Nc2ccc(Oc3ccnc(Nc4cccc(Cl)c4)n3)c3ccccc23)cc1	< 4.79
COc1cccc(Nc2nccc(Oc3ccc(NC(=O)Nc4cc(C(C)(C)C)nn4-c4ccc(C)cc4)c4ccccc34)n2)c1	< 4.79
Cc1ccc(-n2nc(C(C)(C)C)cc2NC(=O)Nc2ccc(Oc3ccnc(Nc4ccc(O)c(F)c4)n3)c3ccccc23)cc1	6.37
COc1ccc(Nc2nccc(Oc3ccc(NC(=O)Nc4cc(C(C)(C)C)nn4-c4ccc(C)cc4)c4ccccc34)n2)cc1OC	6.27
Cc1ccc(-n2nc(C(C)(C)C)cc2NC(=O)Nc2ccc(Oc3ccnc(Nc4ccc(Cl)cc4)n3)c3ccccc23)cc1	< 4.79
CC(C)(C)c1cc(NC(=O)Nc2ccc(Oc3ccnc(Nc4ccccc4)n3)c3ccccc23)n(-c2ccc(O)cc2)n1	5.82
Cc1ccc(-n2nc(C(C)(C)C)cc2NC(=O)Nc2ccc(Oc3ccnc(Nc4ccccc4F)n3)c3ccccc23)cc1	5.09
Cc1ccc(-n2nc(C(C)(C)C)cc2NC(=O)Nc2ccc(Oc3ccnc(Nc4ccc(F)cc4)n3)c3ccccc23)cc1	< 5.78
COc1ccccc1Nc1nccc(Oc2ccc(NC(=O)Nc3cc(C(C)(C)C)nn3-c3ccc(C)cc3)c3ccccc23)n1	< 4.79
COc1ccc(-n2nc(C(C)(C)C)cc2NC(=O)Nc2ccc(Oc3ccnc(Nc4ccc(O)cc4)n3)c3ccccc23)cc1	6.58
COc1ccc(Nc2nccc(Oc3ccc(NC(=O)Nc4cc(C(C)(C)C)nn4-c4ccc(C)cc4)c4ccccc34)n2)cc1	< 4.79
Cc1ccc(-n2nc(C(C)(C)C)cc2NC(=O)Nc2ccc(Oc3ccnc(Nc4cccc(F)c4)n3)c3ccccc23)cc1	< 4.78
COc1ccc(Nc2nccc(Oc3ccc(NC(=O)Nc4cc(C(C)(C)C)nn4-c4ccc(C)cc4)c4ccccc34)n2)c(OC)c1	< 4.81
Cc1ccc(-n2nc(C(C)(C)C)cc2NC(=O)Nc2ccc(Oc3ccnc(Nc4ccccc4C)n3)c3ccccc23)cc1	< 5.78
Cc1ccc(-n2nc(C(C)(C)C)cc2NC(=O)Nc2ccc(Oc3ccnc(Nc4ccc(O)cc4)n3)c3ccccc23)cc1	6.12
